Listed next: entries and their corresponding pKd.
# assay target: DNA gyrase subunit GyrB (Mycobacterium tuberculosis)
# Sequence (P9WG45 whole entry): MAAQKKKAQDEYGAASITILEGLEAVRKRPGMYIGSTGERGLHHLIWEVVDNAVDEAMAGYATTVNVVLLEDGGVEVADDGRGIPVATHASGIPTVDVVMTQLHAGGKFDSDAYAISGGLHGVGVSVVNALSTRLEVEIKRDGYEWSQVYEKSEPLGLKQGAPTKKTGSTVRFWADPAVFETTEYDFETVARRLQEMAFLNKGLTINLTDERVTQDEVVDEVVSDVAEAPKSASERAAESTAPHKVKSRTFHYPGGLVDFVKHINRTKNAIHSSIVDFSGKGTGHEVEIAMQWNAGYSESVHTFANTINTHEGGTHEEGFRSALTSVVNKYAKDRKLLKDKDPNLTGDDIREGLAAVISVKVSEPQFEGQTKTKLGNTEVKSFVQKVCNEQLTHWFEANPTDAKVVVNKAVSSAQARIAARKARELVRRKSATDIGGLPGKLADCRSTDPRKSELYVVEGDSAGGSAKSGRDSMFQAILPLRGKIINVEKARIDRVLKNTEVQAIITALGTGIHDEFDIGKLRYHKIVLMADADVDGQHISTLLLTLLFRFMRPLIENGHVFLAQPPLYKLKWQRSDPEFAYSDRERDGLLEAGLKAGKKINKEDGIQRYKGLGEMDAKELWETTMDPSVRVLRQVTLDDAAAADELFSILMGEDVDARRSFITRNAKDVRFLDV
# protocol notes: SPR
# Format: binding
pKd: −log10 of the molar value.

compound: COc1cccc2c1C(=O)c1c(O)c3c(c(O)c1C2=O)C[C@@](O)(/C(CO)=N/NC(=O)CCCCCN1C(=O)C=CC1=O)C[C@@H]3O[C@H]1C[C@H](N)[C@H](O)[C@H](C)O1
pKd: 6.49
--
compound: CN1CCC[C@H]1CCNC(=O)c1cn2c3c(c(N4CCC(c5cnccn5)C4)c(F)cc3c1=O)Oc1cc3ccccc3cc1-2 (some centres unmarked)
pKd: 4.52

----------
Listed next: entries and their corresponding Kd.
# assay target: DNA gyrase subunit GyrA (Mycobacterium tuberculosis, UniProt P9WG47)
# Sequence (P9WG47 2-838): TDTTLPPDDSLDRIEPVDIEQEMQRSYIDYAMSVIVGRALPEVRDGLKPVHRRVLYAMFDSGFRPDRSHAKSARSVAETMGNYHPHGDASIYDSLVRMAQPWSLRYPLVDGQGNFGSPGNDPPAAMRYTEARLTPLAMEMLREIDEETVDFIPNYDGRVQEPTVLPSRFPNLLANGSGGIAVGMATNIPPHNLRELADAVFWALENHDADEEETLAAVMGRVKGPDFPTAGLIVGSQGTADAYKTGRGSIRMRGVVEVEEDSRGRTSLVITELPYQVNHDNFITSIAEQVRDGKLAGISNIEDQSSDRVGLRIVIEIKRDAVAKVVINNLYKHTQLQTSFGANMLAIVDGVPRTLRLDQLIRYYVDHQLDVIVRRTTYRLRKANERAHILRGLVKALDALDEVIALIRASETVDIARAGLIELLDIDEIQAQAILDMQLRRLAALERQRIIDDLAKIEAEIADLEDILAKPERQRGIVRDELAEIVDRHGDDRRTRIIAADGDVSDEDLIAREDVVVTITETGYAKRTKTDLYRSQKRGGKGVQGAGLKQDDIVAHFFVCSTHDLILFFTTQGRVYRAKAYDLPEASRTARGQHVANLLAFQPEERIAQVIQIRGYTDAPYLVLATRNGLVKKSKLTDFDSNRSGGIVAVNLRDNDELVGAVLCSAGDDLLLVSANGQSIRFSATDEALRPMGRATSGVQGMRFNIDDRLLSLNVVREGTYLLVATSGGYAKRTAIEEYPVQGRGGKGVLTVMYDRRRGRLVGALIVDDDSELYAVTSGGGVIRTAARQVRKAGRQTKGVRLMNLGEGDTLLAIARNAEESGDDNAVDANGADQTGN
# protocol notes: SPR
# Type: binding

compound: CN1CCC[C@H]1CCNC(=O)c1cn2c3c(c(N4CCC(c5cnccn5)C4)c(F)cc3c1=O)Oc1cc3ccccc3cc1-2 (some centres unmarked) [quarfloxin]
measurement unit: nM
Kd: 2890
--
compound: COc1cccc2c1C(=O)c1c(O)c3c(c(O)c1C2=O)C[C@@](O)(/C(CO)=N/NC(=O)CCCCCN1C(=O)C=CC1=O)C[C@@H]3O[C@H]1C[C@H](N)[C@H](O)[C@H](C)O1 [aldoxorubicin]
measurement unit: nM
Kd: 400
